assay: Toxicology tests, oral LD50; details: rat, in vivo, rats
observable: LD50

{"compound": "CC(C(C)C(C)(C)C)C(C)C1(C)CO1 (stereo not shown)", "recorded value": "> 2000 mg/kg"}
